B1: Segment polarity protein dishevelled homolog DVL-3, residues 2 to 81; numbered along this chain, Q92997 (parent)
chain: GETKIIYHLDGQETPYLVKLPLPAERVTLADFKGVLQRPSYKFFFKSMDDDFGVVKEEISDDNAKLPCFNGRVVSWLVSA

Variants of: B1
protocol.summary: abundance fitness (aPCA) (normalised: wild type 0, dead -1); higher = more abundant; growth selection in yeast, the domain comes from the species named
condition.context: Homo sapiens
assay.readout: abundance fitness
Lab note: write the figure by itself, no unit.

Notebook: GETKIIYHLDGQETPYLVKLPLPAERETLADFKGVLQRPSYKFFFKSMDDDFGVVKEEISDDNAKLPCFNGRVVSWLVSA [V27E] , abundance fitness read as -0.624

Notebook: GETKIIYHLDGQETPYLVKLPLPAERVTLADFKGVLQRPSYKFFFKSMDDDFGVVKEEISDDNAKLPCFNGRVGSWLVSA [V74G] , abundance fitness read as -0.716

Notebook: GETKIIYHLDGQETPYLVKLPLPAERVTLADFKGVLQRPSYKFFFKSMDDDFGVVKEEISDDNAKLPCFNIRVVSWLVSA [G71I] , abundance fitness read as -0.249

Notebook: GETKIIYHLDGQETPYLVKLPLPAERVTLADFKGVLQRPSYKFFFKSMDDDFGVVKEEISDDNAKLGCFNGRVVSWLVSA [P67G] , abundance fitness read as -0.659

Notebook: GETKIIYHLDGQETPYLVKLPLPAERVTLADFKGVLQRPSYKFFFKSMDDDFGVVKEEISDDNAKLPCFNMRVVSWLVSA [G71M] , abundance fitness read as -1.4

Notebook: GETKIIYHLDGQETPYLVKLPLPAERVTLADFKGVLQRPSYKFFFKSMADDFGVVKEEISDDNAKLPCFNGRVVSWLVSA [D49A] , abundance fitness read as 0.018

Notebook: GETKIIYHLDGQETPYLVKLPLPAERVTLADFKGVLQRPSYKFFFKSMDDDFGVVKEEISDDNAKLPCFNGRVVSWLVSQ [A80Q] , abundance fitness read as -0.029
